study system: T1, Human VSIG4-L-Fc (human)
T1 construct: also called hVSIG4-L-Fc; hVSIG4-L
T1 sequence (chain, as listed by the source limits assumed): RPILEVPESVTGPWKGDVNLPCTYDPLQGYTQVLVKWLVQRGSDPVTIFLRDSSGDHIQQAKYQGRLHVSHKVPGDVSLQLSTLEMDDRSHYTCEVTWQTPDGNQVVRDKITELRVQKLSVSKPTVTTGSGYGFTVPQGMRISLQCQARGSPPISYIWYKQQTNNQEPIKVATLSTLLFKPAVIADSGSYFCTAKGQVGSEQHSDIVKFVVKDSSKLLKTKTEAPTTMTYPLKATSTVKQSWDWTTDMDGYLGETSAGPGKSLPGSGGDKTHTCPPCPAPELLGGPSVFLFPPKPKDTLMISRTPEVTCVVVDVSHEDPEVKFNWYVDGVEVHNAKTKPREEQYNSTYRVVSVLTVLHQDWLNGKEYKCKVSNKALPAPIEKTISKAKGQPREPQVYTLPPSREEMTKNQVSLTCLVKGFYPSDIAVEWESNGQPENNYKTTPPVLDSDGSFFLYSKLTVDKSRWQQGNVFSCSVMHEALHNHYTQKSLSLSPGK
assay details: ELISA, IgG 50 nM on coated antigen;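 also: Mouse-human chimeric IgG4 antibodies incubated 1 h on plate-coated VSIG4 proteins, bound IgG detected with HRP-labelled anti-human IgG, irrelevant antibody and protein as specificity controls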
metric: ELISA OD450 (OD450)
Write it as a number; the unit OD450 goes unstated.

// recorded ELISA OD450 for 14C05 mouse/human chimeric IgG4 (S228P) kappa (antibody, V domains shown) VH: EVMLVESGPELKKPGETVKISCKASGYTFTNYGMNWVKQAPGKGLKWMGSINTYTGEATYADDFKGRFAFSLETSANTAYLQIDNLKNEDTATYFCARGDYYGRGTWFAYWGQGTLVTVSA VL: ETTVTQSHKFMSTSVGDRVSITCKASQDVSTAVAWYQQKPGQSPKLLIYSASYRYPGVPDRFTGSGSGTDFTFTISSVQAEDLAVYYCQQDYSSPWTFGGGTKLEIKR : 4.51
